Note to self: these molecules have IC50 reported for the protein given by its sequence in various publications.
Protein target, amino acids: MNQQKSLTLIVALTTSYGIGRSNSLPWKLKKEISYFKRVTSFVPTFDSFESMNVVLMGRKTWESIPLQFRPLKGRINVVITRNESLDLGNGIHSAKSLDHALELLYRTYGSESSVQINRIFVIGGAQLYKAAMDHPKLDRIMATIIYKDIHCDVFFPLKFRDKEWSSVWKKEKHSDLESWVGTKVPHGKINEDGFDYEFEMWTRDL
measurement-name: IC50 (nM)

In the examples that follow, each entry is paired with its recorded IC50.
Nc1nc(N)c2cc(COC(=O)c3ccc(C(=O)O)cc3)ccc2n1 | 1000
COc1cccc(NCc2cnc3nc(N)nc(N)c3c2C)c1 | 68.9
CCc1nc(N)nc(N)c1-c1ccc(Cl)c(/N=C/N(C)C)c1 | 10600

I = COc1cccc(N(C)Cc2cnc3nc(N)nc(N)c3c2C)c1
II = COc1cc(NCc2cnc3nc(N)nc(N)c3c2C)cc(OC)c1
Inquiry: Of the two listed items, which has the higher IC50? First: I Second: II Identify your selection by its label.
Reply text: II
(II: 49 nM, I: 30 nM)

1 = Nc1nc(N)c2cc(CNc3ccc(Cl)cc3)cnc2n1
2 = CCc1nc(N)nc(N)c1-c1ccc(Cl)c(/N=N/N(C)C)c1
3 = COc1cc(-c2nc3nc(N)nc(N)c3[nH]2)c([N+](=O)[O-])cc1OC
4 = Cc1c(CNc2cccc(Cl)c2)cnc2nc(N)nc(N)c12
Inquiry: Ordering: ascending IC50. Sort the labels as requested; that list is your answer.
Reply text: 4, 1, 2, 3
(4: 23 nM, 1: 970 nM, 2: 6000 nM, 3: 25000 nM)

A = COc1ccc(-c2nc3[nH]c(N)nc(N)c-3n2)c2ccccc12
B = COc1ccc(OC)c(NCc2ccc3nc(N)nc(N)c3c2)c1
C = COc1ccccc1Sc1ccc2nc(N)nc(N)c2n1
D = CN(Cc1ccc2nc(N)nc(N)c2n1)c1ccc(Cl)c(Cl)c1
Inquiry: Task for the reader: rank each entry by its IC50, from the minimum upward. Would you mind listing the labels in the order asked for?
Reply text: D, B, C, A
